Origin of the recorded values: ChEMBL document CHEMBL3046483

# Test system: Amaranthus tricolor
# run-description: Herbicidal activity against Amaranthus tricolor assessed as inhibitory rate of seedling height at 7.5 g/hm'2 relative to control
# Format: functional
Label scheme for inhibition (INH): lower than 20% is Not satisfied, 20% and above is Satisfied.

| smiles-string | discrete-label |
| --- | --- |
| Cc1ccc(/C=C/C(=O)c2occc2O)cc1 | Not satisfied |

I'd appreciate it if you could say whether O=C(/C=C/c1ccc(F)cc1)c1occc1O has inhibition (INH) at least equal to 20%.
Not satisfied

I'd appreciate it if you could say whether COC(=O)[C@@H](C)Oc1ccc(Oc2ncc(C(F)(F)F)cc2Cl)cc1 has inhibition (INH) at least equal to 20%.
Not satisfied

I'd appreciate it if you could say whether O=C(/C=C/c1ccc2ccccc2c1)c1occc1O has inhibition (INH) at least equal to 20%.
Satisfied

I'd appreciate it if you could say whether O=C(/C=C/c1ccccn1)c1occc1O has inhibition (INH) at least equal to 20%.
Not satisfied

I'd appreciate it if you could say whether O=C(/C=C/c1cccc([N+](=O)[O-])c1)c1occc1O has inhibition (INH) at least equal to 20%.
Satisfied
